Hello, the source for this data is paper PMC10817917, in case you need it.

Hi there, I'd appreciate the recorded MIC for every entry that follows.
System: E. coli ATCC 25922
Assay: Broth microdilution MIC/MBC, glycosides with or without polymyxins
Assay type: cell-based, Escherichia coli
Conditions: Escherichia coli, ATCC25922; antibiotic alone; strain A; read-out: MIC (antibiotic susceptibility profile)

Field request: MIC | item: CC(C)(O/N=C(\C(=O)N[C@@H]1C(=O)N2C(C(=O)[O-])=C(C[n+]3ccccc3)CS[C@H]12)c1csc(N)n1)C(=O)O [Ceftazidime, reference compound]
0.125 to 0.25 µg/mL

Thanks! And NCC[C@H](O)C(=O)N[C@@H]1C[C@H](N)[C@@H](O[C@H]2O[C@H](CN)[C@@H](O)[C@H](O)[C@H]2O)[C@H](O)[C@H]1O[C@H]1O[C@H](CO)[C@@H](O)[C@H](N)[C@H]1O [Amikacin, reference compound] ?
1 to 2 µg/mL

Thanks! And C[C@@H](O)[C@H]1C(=O)N2C(C(=O)O)=C(S[C@@H]3CN[C@H](C(=O)N(C)C)C3)[C@H](C)[C@H]12 [Meropenem, reference compound] ?
0.016 to 0.03 µg/mL

Thanks! And C[C@@H](O)[C@H]1C(=O)N2C(C(=O)O)=C(SCCN=CN)C[C@H]12 [Imipenem, reference compound] ?
0.125 to 0.25 µg/mL

---
Field request: MIC | item: CO/N=C(\C(=O)N[C@@H]1C(=O)N2C(C(=O)[O-])=C(C[N+]3(C)CCCC3)CS[C@H]12)c1csc(N)n1 [Cefepime, reference compound]
0.03 to 0.06 µg/mL

----------
Test system: P. aeruginosa CQ4924
Assay: Broth microdilution MIC, glycosides with or without polymyxins
Assay type: cell-based, Pseudomonas aeruginosa
Details: Cpd conc. 3.125 μg/mL; strain H
Hi there, I'd appreciate the recorded MIC of colistin in combination with the compound for every entry that follows.

Field request: MIC of colistin in combination with the compound | item: CCCCCCCCCCCCO[C@@H]1C[C@@H](O)[C@H](O)[C@@H](CO)O1
> 0.5 µg/mL

Each compound below has a reported value. Please supply its MIC of colistin in combination with the compound.
1. CCCCCCCCCCCCO[C@@H]1O[C@H](C)C[C@H](O)[C@H]1O
2. CCCCCCCCCCCCO[C@H]1O[C@H](C)C[C@H](O)[C@H]1O

["> 0.5 µg/mL", "> 0.5 µg/mL"]

----------
Test system: E. cloacae CQ1941
Experiment: Broth microdilution MIC/MBC, glycosides with or without polymyxins
Assay type: cell-based
Conditions: Enterobacter cloacae, CQ1941; antibiotic alone; strain D; read-out: MIC (antibiotic susceptibility profile)
outcome-measure: MIC

Below, each entry is followed by its recorded MIC result.
Field request: MIC | item: NC[C@H]1O[C@H](O[C@H]2[C@H](O)[C@@H](O[C@H]3O[C@H](CO)[C@@H](O)[C@H](N)[C@H]3O)[C@H](N)C[C@@H]2N)[C@H](N)C[C@@H]1O [Tobramycin, reference compound]
≥ 128 µg/mL

Thanks! And CC(C)(O/N=C(\C(=O)N[C@@H]1C(=O)N2C(C(=O)[O-])=C(C[n+]3ccccc3)CS[C@H]12)c1csc(N)n1)C(=O)O [Ceftazidime, reference compound] ?
≥ 128 µg/mL

Thanks! And C[C@@H](O)[C@H]1C(=O)N2C(C(=O)O)=C(S[C@@H]3CN[C@H](C(=O)Nc4cccc(C(=O)O)c4)C3)[C@H](C)[C@H]12 [Ertapenem, reference compound] ?
64 µg/mL

Thanks! And CO/N=C(\C(=O)N[C@@H]1C(=O)N2C(C(=O)O)=C(COC(C)=O)CS[C@H]12)c1csc(N)n1 [Cefotaxime, reference compound] ?
≥ 128 µg/mL

Thanks! And C[C@H]1[C@H](NC(=O)/C(=N\OC(C)(C)C(=O)O)c2csc(N)n2)C(=O)N1S(=O)(=O)O [Aztreonam, reference compound] ?
> 64 µg/mL

Each compound below has a reported value. Please supply its MIC.
1. CO/N=C(\C(=O)N[C@@H]1C(=O)N2C(C(=O)[O-])=C(C[N+]3(C)CCCC3)CS[C@H]12)c1csc(N)n1 [Cefepime, reference compound]
2. C[C@@H](O)[C@H]1C(=O)N2C(C(=O)O)=C(S[C@@H]3CN[C@H](C(=O)N(C)C)C3)[C@H](C)[C@H]12 [Meropenem, reference compound]
3. NCC[C@H](O)C(=O)N[C@@H]1C[C@H](N)[C@@H](O[C@H]2O[C@H](CN)[C@@H](O)[C@H](O)[C@H]2O)[C@H](O)[C@H]1O[C@H]1O[C@H](CO)[C@@H](O)[C@H](N)[C@H]1O [Amikacin, reference compound]

1. > 64 µg/mL
2. 32 to 64 µg/mL
3. ≥ 128 µg/mL
